Biological target: GORASP1, Q9BQQ3
Sequence (Q9BQQ3 1-208): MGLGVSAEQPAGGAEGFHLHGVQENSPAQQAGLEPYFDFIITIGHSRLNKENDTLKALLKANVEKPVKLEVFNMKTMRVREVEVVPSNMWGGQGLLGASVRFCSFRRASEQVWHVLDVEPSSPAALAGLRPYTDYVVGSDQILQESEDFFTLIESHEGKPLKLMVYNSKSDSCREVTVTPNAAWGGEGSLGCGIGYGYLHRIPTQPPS
Assay: holdup assay
Parameters: key: below the threshold = too weak to quantify, mostly under pKd 3.1 to 4
Details: plain residues with an end cap or a label only (N-terminal biotin on a linker: ado-ado)
QUANTITY_KIND: pKd
Could you respond with only the numeric value?

[
  {
    "BINDER": "TKGPRGPTRV [SAPCD1, Q5SSQ6]",
    "RESULT_VALUE": 3.57
  },
  {
    "BINDER": "PPYRHRNTVV [ERBB4, Q15303]",
    "RESULT_VALUE": 4.19
  }
]

query: Looking for the measured pKd of QSLNRMEYIV [JAG1, P78504] , can you help?
result: 4.71
